Source: PubChem BioAssay

Assay: CREB reporter modulators without forskolin, primary screen, cell-based, PC12, CRE-LacZ reporter, unstimulated (AID 1145)
Settings: no forskolin, luminescence, 4.5 h, higher = more signal, called active from +8 up or from −8 down
Values of z-score greater than or equal to -0.2 map to YES; values below map to NO.

Example cases with answers are listed next.
Molecule	Classification
CN1C(=O)C2C=CC(C(O)C3CCCCC3)N(N3CCCCC3)C2C1=O (stereo not given)	NO
O=C(O)[C@H]1C[C@H]2C(=O)N3CCC[C@H]3C(=O)N2[C@H]1c1cccc(OCCO)c1	YES

Assess whether reported z-score for "CO[C@H]1O[C@H](CO)[C@@H](OC(=O)Nc2ccccc2-c2ccccc2)[C@H](OC(=O)Nc2ccc3c(c2)OCO3)[C@@H]1OC(=O)Nc1ccc2c(c1)OCO2" sits at -0.2 or higher.
YES

Assess whether reported z-score for "[N-]=[N+]=Nc1ccccc1C[C@]1(C(=O)NCc2ccccc2)N=C(c2ccc(OCCCO)cc2)O[C@H]1c1ccccc1" sits at -0.2 or higher.
NO
